Where do the numbers come from? From ChEMBL document CHEMBL1201862.

tested on: UO-31; experiment: NCI tumour cell line growth inhibition, 48 h
Activity calls are given as the source filed them. Cut-off read from the data, not from the text of the source: active = GI50 up to about 1.1 µM and inactive = higher.
Permitted responses: 1 (yes) (active), 0 (no) (inactive)

| compound | group |
| --- | --- |
| COC(=O)C1C(O)CCC2CN3CCc4c([nH]c5cccc(OC)c45)C3CC21 (configuration not stated) | 0 (no) |
| CC1C2CC(CC2=O)C1(C)C (configuration not stated) | 0 (no) |
| COc1ccc2c(c1)CC1=C(O2)c2ccc(OC)cc2OC1 | 0 (no) |
| O=C1CC(c2ccc([N+](=O)[O-])cc2)C2(C(=O)NC(=S)NC2=O)C(c2ccc([N+](=O)[O-])cc2)C1 (configuration not stated) | 0 (no) |
| O=C1C=Cc2c(Cl)sc(Cl)c21 | 0 (no) |

Ask: Write down the call the test reported for this compound. Item: O=C1CC(C(CC(=O)c2ccccc2)c2ccccc2)C(=O)c2ccccc2N1 (configuration not stated)
Result: 0 (no)

Ask: What about this compound? `Cc1cc2nc(-c3cc(C(C)(C)C)c(O)c(C(C)(C)C)c3)[nH]c2cc1C`
Result: 0 (no)

Ask: What about this compound? `CCCC(=O)N(C(=O)CCC)C1=C(Cl)C(=O)c2ccccc2C1=O`
Result: 0 (no)

Ask: What about this compound? `O=C(O)CCc1nc2c(n1-c1ccccc1)C(=O)c1ccccc1C2=O`
Result: 0 (no)

Ask: What about this compound? COc1c(O)cc2c(c1O)C(=O)C(Cc1ccc(O)cc1)CO2 (configuration not stated)
Result: 0 (no)

###

test system: SF-539; assay: NCI tumour cell line growth inhibition, 48 h
The source made the active and inactive calls. No stated cut-off is given here; in the data, active = GI50 up to about 1.1 µM and inactive = higher.
measuredEndpoint: GI50

Answered cases to consult:
| compound | GI50 |
| --- | --- |
| Cc1ccc(NC(=O)CC2SC(Nc3cccc(Cl)c3C)=NC2=O)cc1 (stereo not given) | 53.1 µM (inactive) |
| COc1ccc(C(CC(=O)C(C)(C)CN2CCCCC2)SCCS(=O)(=O)O)cc1 (stereo not given) | 19.9 µM (inactive) |
| O=C(O)CCc1nc2c(n1-c1ccccc1)C(=O)c1ccccc1C2=O | > 100 µM (inactive) |
| Cc1nc(N)sc1/N=N/c1cc(Cl)c([N+](=O)[O-])cc1Cl | 17.3 µM (inactive) |

Ask: Record request: GI50 value, item CC1CCCC(C(=O)/C(=C/c2cccc(Cl)c2)C(=O)C(=O)O)C1 (stereo not given)
Result: 27.5 µM (inactive)

###

system: OVCAR-8; experiment: NCI tumour cell line growth inhibition, 48 h
Calls of active or inactive are those of the source. Cut-off read from the data, not from the text of the source: active = GI50 up to about 1.1 µM and inactive = higher.
// reported GI50 for each item listed

Answered cases to consult:
| compound | GI50 |
| --- | --- |
| CC(=O)c1sc2c(c1OC(=O)c1ccco1)c(=O)n(-c1ccccc1)c(=S)n2-c1ccccc1 | 30.3 µM (inactive) |
| N#C/C(C(=O)Nc1ccccc1)=C(/N)N1CCCC1 | > 100 µM (inactive) |
| CSC1C(=O)Nc2ccc3ccccc3c21 (stereo not given) | 17.7 µM (inactive) |

Ask: State its GI50 on OVCAR-8: CSc1nc(Cl)c2c(n1)Sc1nc3cc4c(cc3n1C2O)OCO4 (stereo not given)
Result: 0.575 µM (active)

Ask: What about this compound? `Clc1nc2c(N3CCCC3)nc(N3CCNCC3)nc2[nH]1`
Result: 16 µM (inactive)

Ask: What about this compound? CC(=O)OCC1OC(n2c(C)cc(C)c(C#N)c2=S)C(OC(C)=O)C(OC(C)=O)C1OC(C)=O (stereo not given)
Result: > 100 µM (inactive)

Ask: What about this compound? `Cc1ncc([N+](=O)[O-])n1CCNC(=O)CCC(=O)NCCCn1ccnc1[N+](=O)[O-]`
Result: > 100 µM (inactive)

Ask: What about this compound? `COc1cc(OC)c2nccc(NCCCN(C)C)c2c1[N+](=O)[O-]`
Result: > 100 µM (inactive)

Ask: What about this compound? `Cc1ccc(/C=N/Nc2cc(C)c3ccccc3n2)s1`
Result: 23.2 µM (inactive)

Ask: What about this compound? O=C(CC(=O)N1N=C(n2ccc3ccccc32)CC1c1ccccc1)Nc1ccc(Cl)cc1 (stereo not given)
Result: > 100 µM (inactive)

###

system: NCI-H522; assay: NCI tumour cell line growth inhibition, 48 h
The source made the active and inactive calls. No stated cut-off is given here; in the data, active = GI50 up to about 1.1 µM and inactive = higher.
Permitted responses: active, inactive

Ask: Write down the call the test reported for this molecule. Item: CCCCOC(=O)C1CC[C@H]2[C@@H]3CCc4cc(OC(=O)c5cccc6c(=O)c7ccccc7[nH]c56)ccc4[C@H]3CC[C@]12C (stereo not given in full)
Result: inactive

Ask: What about this molecule? CC(=O)C1=C(c2ccccc2)N(C2OC(CO)C(O)C(O)C2O)C(S)=C(C#N)C1c1ccc(Cl)cc1 (stereo not given)
Result: inactive

Ask: What about this molecule? `COc1ccc(CCc2cc(OC)c(O)c(OC)c2)cc1`
Result: inactive

Ask: What about this molecule? `CCOC(=O)c1c2cccccc2n2c(=O)cc(C)nc12`
Result: inactive

Ask: What about this molecule? CC1Nc2ccccc2NC1C=C(C#N)C#N (stereo not given)
Result: inactive

Ask: What about this molecule? `Cn1c2ccccc2n2c(=O)c3cccnc3c(C#N)c12`
Result: inactive

Ask: What about this molecule? CC#CC1C2CCCC1(CSc1ccccc1)NC(=O)O2 (stereo not given)
Result: inactive

###

tested on: BT-549; experiment: NCI tumour cell line growth inhibition, 48 h
Active and inactive are the calls of the source. Rule as the data show it: active = GI50 up to about 1.1 µM and inactive = higher.
// reported GI50 for each item listed

Ask: Record request: GI50 value, item `Brc1ccccc1-c1ncc(-c2ccccc2)o1`
Result: 29.2 µM (inactive)

Ask: What about this molecule? `O=[N+]([O-])C(/C=C(\Cl)[N+](=O)[O-])=C(Nc1ccccc1)Nc1ccccc1`
Result: 7.24 µM (inactive)

Ask: What about this molecule? `CC(=O)Nc1ccc(S(=O)(=O)/N=c2/sc(S(N)(=O)=O)nn2C)cc1`
Result: > 100 µM (inactive)

Ask: What about this molecule? `O=c1c2ccccc2nc2[nH][nH]c(=S)n12`
Result: > 100 µM (inactive)

Ask: What about this molecule? CCOC(=O)C1=c2[nH]c3cccc4cccc(c43)n2C(=O)CC1c1ccccc1 (stereo not given)
Result: > 100 µM (inactive)

###

system: DMS-114; assay: NCI tumour cell line growth inhibition, 48 h
Calls of active or inactive are those of the source. No stated cut-off is given here; in the data, active = GI50 up to about 1.1 µM and inactive = higher.
// reported GI50 for each item listed

Ask: Record request: GI50 value, item CC(=O)C1Cn2c(nc3ccccc32)C[Se]1 (stereo not given)
Result: 2.12 µM (inactive)

###

tested on: SK-MEL-28; experiment: NCI tumour cell line growth inhibition, 48 h
Activity calls are given as the source filed them. Rule as the data show it: active = GI50 up to about 1.1 µM and inactive = higher.
measuredEndpoint: GI50

| molecule | observed |
| --- | --- |
| CC(C)C(C(=O)O)N1C(=O)c2ccccc2C1=O (centres undefined) | > 100 µM (inactive) |
| O=C1C2=Cc3ccccc3CCN2c2ccccc21 | > 49.9 µM (inactive) |

Ask: State its GI50 on SK-MEL-28: `O=C1[C@@H]2C(c3c(Cl)cccc3Cl)=NO[C@@H]2C(=O)N1c1ccc(Cc2ccc(N3C(=O)[C@H]4C(c5c(Cl)cccc5Cl)=NO[C@H]4C3=O)cc2)cc1`
Result: > 100 µM (inactive)

Ask: What about this molecule? `O/N=C1\CCc2nonc2\C1=N/Nc1ccccc1`
Result: > 100 µM (inactive)

Ask: What about this molecule? `Cc1ccc(C(=O)Nc2ccc(S(=O)(=O)O)c3cc(S(=O)(=O)O)cc(S(=O)(=O)O)c23)cc1N`
Result: > 100 µM (inactive)

Ask: What about this molecule? CC(=O)C1=C(c2ccccc2)N(C2OC(CO)C(O)C(O)C2O)C(S)=C(C#N)C1c1ccc(Cl)cc1 (centres undefined)
Result: 20.7 µM (inactive)

Ask: What about this molecule? `CSc1ccc(/C=C2/C[N+](C)(C)C/C(=C/c3ccc(SC)cc3)C2=O)cc1`
Result: 8.09 µM (inactive)

Ask: What about this molecule? `Clc1ccc(OCc2nnc(CCCCCCCCc3nnc(COc4ccc(Cl)cc4Cl)o3)o2)c(Cl)c1`
Result: > 100 µM (inactive)

Ask: What about this molecule? `CCn1ncc(N=O)c1N`
Result: > 100 µM (inactive)

###

system: KM12; assay: NCI tumour cell line growth inhibition, 48 h
Active and inactive are the calls of the source. Rule as the data show it: active = GI50 up to about 1.1 µM and inactive = higher.
Permitted responses: active, inactive

Solved cases below.
| molecule | group |
| --- | --- |
| COc1ccc(-c2c3ccccc3c(-c3ccc(OCCBr)cc3)c3ccccc23)cc1 | inactive |
| Cn1c2ccccc2n2c(=O)c3cccnc3c(C#N)c12 | inactive |
| Oc1cn(-c2ccc(Cl)cc2)nc1-c1nnc(Nc2ccccc2)o1 | inactive |

Please turn your attention to the following entry.
Ask: Write down the call the test reported for this molecule. Item: `O=C(NNC(=O)c1ccncc1)C(=O)Nc1cc(Cl)c(Cl)cc1Cl`
Result: inactive
